assay: chemical genetic growth profiling, strain panel (AID 1159580);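 further: tested at 20 µM; growth read once vehicle control cultures reached saturation at 30 °C; lower values mean less growth of the strain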; settings: S. cerevisiae deletion strains, growth OD, locus YCL011C, strain gbp2
Out of some 5,500 compounds screened, about 2,000 (36%) were called active. Another 18% or so got no clear call; they are omitted. No stated cut-off is given here; in the data, active means normalized growth mostly below about 0.91 (no sharp cut-off); inconclusive means no clear call, values can overlap the other calls; inactive means mostly above about 0.92. This is one part of the list.
// one of active, inactive, no free text

# count of solved cases: 3
INSERT INTO measurements (compound, label_value) VALUES
  ('O=C1C=CC(=O)c2ccccc21', 'active'),
  ('CC(C)CCCC(C)N (centres undefined)', 'inactive'),
  ('CC1CC(OC(=O)c2ccccc2O)CC(C)(C)C1 (centres undefined)', 'inactive');

API: the following record is the query input.
(Q) Please indicate how the test categorized CC(=O)Nc1c(I)cc(I)c(C(=O)O)c1I .
(A) inactive
